# credit: patent US20080234276A1

So I've got a bunch of compounds here, and I need their inhibition at 100 µM values.
Molecular target: CHK1 (h) (Homo sapiens, UniProt O14757)
Construct: purchased Upstate Ltd
Sequence (O14757 1-476): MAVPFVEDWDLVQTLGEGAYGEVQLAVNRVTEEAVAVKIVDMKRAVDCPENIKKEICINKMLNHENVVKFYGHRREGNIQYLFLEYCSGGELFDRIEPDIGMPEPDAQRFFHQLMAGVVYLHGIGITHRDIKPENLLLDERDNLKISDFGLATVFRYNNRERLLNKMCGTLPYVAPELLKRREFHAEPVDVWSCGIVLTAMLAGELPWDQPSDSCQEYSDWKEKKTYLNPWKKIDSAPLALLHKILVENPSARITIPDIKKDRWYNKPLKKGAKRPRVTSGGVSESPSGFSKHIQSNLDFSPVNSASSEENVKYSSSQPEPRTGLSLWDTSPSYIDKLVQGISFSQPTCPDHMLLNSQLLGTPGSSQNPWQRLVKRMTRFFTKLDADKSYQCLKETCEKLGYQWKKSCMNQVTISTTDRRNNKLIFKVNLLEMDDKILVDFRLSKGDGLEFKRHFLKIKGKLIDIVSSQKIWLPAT
Test: CHK1 (h) kinase assay (Upstate, 33P-ATP filtermat)
Type: biochemical
Details: 100 uM of inhibitor; ATP 90 uM
Numeric answer only, unit % assumed.

Request: Can you look up the measured inhibition at 100 µM of CN(C)CCCOc1ccc(Cl)cc1NC(=O)Nc1nnc2ccccc2n1 [Example 9] for me?
Response: 93

Request: What about this compound? c1ccc2nc(-c3cn[nH]c3)nnc2c1 [Example 13, 3-(1H-Pyrazol-4-yl)-benzo[1,2,4]triazine]
Response: 13

Request: What about this compound? c1cncc(Nc2nnc3ccccc3n2)c1 [Example 3]
Response: 21

Request: What about this compound? Nc1nnc2cc(-c3cn[nH]c3)ccc2n1 [Example 8]
Response: 26

Request: What about this compound? [O-][n+]1nc(-c2cn[nH]c2)nc2ccccc21 [Example 12]
Response: 3

Request: What about this compound? Nc1nnc2cc(-c3ccn[nH]3)ccc2n1 [Example 14]
Response: 20

Request: What about this compound? Cc1cc(Nc2nnc3ccccc3n2)n[nH]1 [Example 11]
Response: 32

Request: What about this compound? c1ccc2nc(Nc3ccc(N4CCNCC4)cc3)nnc2c1 [Example 6]
Response: 33

Request: What about this compound? O=C(Nc1ccc2nncnc2c1)Nc1cnccn1 [Example 18]
Response: 23

* * *

So I've got a bunch of compounds here, and I need their KDR (h) % inhibition values.
biological target: KDR (h) (Homo sapiens, UniProt P35968); construct: purchased Upstate Ltd; experiment: KDR (h) kinase assay (Upstate, 33P-ATP filtermat); assay type: biochemical; conditions: 100 uM of inhibitor; ATP 90 uM
Sequence (P35968 20-1356): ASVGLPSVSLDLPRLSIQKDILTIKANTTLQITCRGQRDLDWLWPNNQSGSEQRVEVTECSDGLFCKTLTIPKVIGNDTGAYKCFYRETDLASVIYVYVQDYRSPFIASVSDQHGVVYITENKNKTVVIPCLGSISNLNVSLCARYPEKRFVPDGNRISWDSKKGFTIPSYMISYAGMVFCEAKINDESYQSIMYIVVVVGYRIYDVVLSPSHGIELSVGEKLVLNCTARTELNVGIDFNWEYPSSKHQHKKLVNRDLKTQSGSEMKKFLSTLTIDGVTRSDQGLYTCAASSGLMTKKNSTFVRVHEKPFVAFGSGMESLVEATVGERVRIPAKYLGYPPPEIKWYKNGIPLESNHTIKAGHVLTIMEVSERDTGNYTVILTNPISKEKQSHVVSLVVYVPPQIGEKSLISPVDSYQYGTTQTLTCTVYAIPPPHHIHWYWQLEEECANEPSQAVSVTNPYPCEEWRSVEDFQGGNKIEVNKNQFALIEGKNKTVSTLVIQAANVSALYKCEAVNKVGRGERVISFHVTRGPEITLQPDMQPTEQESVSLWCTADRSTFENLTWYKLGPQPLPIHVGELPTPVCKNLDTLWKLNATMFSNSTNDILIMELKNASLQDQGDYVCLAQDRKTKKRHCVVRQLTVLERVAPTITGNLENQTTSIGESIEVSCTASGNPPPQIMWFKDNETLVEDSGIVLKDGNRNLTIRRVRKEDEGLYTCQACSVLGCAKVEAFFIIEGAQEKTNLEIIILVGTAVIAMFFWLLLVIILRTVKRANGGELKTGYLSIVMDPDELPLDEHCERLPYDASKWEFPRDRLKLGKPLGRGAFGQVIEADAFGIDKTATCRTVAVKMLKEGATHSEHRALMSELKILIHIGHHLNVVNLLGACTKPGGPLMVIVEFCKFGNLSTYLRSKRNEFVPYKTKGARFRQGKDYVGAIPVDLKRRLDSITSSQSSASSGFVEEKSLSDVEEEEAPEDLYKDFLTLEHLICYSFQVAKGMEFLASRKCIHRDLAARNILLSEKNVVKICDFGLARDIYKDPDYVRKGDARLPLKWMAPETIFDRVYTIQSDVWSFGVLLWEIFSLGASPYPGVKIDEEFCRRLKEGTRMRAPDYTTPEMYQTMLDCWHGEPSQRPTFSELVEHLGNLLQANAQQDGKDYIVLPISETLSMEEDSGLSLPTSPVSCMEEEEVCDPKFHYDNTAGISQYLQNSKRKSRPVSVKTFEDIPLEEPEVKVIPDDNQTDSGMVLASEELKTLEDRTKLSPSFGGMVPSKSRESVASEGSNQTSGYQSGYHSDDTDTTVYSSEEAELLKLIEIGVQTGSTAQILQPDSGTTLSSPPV
Numeric answer only, unit % assumed.

Request: Can you look up the measured KDR (h) % inhibition of Nc1nc2cc(OCCc3ccc(Cl)c(Cl)c3)ccc2[n+]([O-])n1 for me?
Response: 0

Request: What about this compound? Cl.Nc1nnc2ccc(OCC3CCNCC3)cc2n1
Response: 6

Request: What about this compound? Cl.Nc1nc2cc(OCC3CCNCC3)ccc2[n+]([O-])n1
Response: 3

Request: What about this compound? Nc1nc2cc(N3CCNCC3)ccc2[n+]([O-])n1
Response: 18

Request: What about this compound? Nc1nc2ccc(-c3cn[nH]c3)cc2[n+]([O-])n1
Response: 98

Request: What about this compound? Nc1nc2ccc(-c3ccn[nH]3)cc2[n+]([O-])n1
Response: 46
